Value source: PubChem BioAssay (Tox21)

System: thyroid hormone receptor (rat, GH3 cells)
Experiment: qHTS assay to identify small molecule agonists of the thyroid receptor (TR) signaling pathway (AID 743066); also: % is scaled to controls: 0 for no effect and ±100 for the full control effect
Settings: GH3.TRE-Luc cells, TR agonist luciferase, 24 h; series mostly up to 83.9 µM
Results filed as inconclusive are left out. Activity calls are given as the source filed them. Calls follow the shape of the full dose curve.

molecule: CC(C)(Oc1ccc(C2CCCc3ccccc32)cc1)C(=O)O (stereo unspecified)
outcome: inactive
//
molecule: Nc1nc(NC2CC2)c2ncn([C@@H]3C=C[C@@H](CO)C3)c2n1
outcome: inactive
//
molecule: NC(=O)CC[C@@H]1NC(=O)[C@H](Cc2ccccc2)NC(=O)[C@H](Cc2ccc(O)cc2)NC(=O)[C@@H](N)CSSC[C@@H](C(=O)N2CCC[C@H]2C(=O)N[C@@H](CCCN=C(N)N)C(=O)NCC(N)=O)NC(=O)[C@H](CC(N)=O)NC1=O
outcome: inactive
//
molecule: O=C1OC(=O)c2cc(-c3ccc4c(c3)C(=O)OC4=O)ccc21
outcome: inactive
//
molecule: CN[C@H](CC(C)C)C(=O)N[C@H]1C(=O)N[C@@H](CC(N)=O)C(=O)N[C@H]2C(=O)N[C@H]3C(=O)N[C@H](C(=O)N[C@@H](C(=O)O)c4cc(O)cc(O)c4-c4cc3ccc4O)[C@H](O)c3ccc(c(Cl)c3)Oc3cc2cc(c3O[C@@H]2O[C@H](CO)[C@@H](O)[C@H](O)[C@H]2O[C@H]2C[C@](C)(N)C(O)[C@H](C)O2)Oc2ccc(cc2Cl)[C@H]1O (stereo partly specified)
outcome: inactive
//
molecule: CCOC(=O)COc1ccc2c(=O)cc(-c3ccccc3)oc2c1
outcome: inactive

====

Assay: qHTS RealTime-Glo MT Cell Viability Assay in HEK293 cells - 32 hour (AID 1224868); also: top concentration of the series differs between compounds; % is scaled to controls: 0 for no effect and ±100 for the full control effect; nearly all actives have a fitted effect of over 50% in size
Conditions: RealTime-Glo luminescence; series mostly up to 76.8 µM
From the text: National Center for Advancing Translational Sciences [NCATS] NIH Chemical Genomics Center [NCGC] U.S. Environmental Protection Agency [EPA] National Institutes of Environmental Health Sciences [NIEHS] National Toxicology Program [NTP] U.S. Food and Drug Administration [FDA] Measure of cell viability is critical in the cell-base assay. Analysis of cell viability is necessary for the characterization of cell responses to cytotoxic drugs and environmental stress. […]
Inconclusive results are not listed. Calls of active or inactive are those of the source. Calls follow the shape of the dose curve; as a rule, active = well fitted cell-killing curve with a large enough effect in the repeat runs; inconclusive = weak or mixed curves, or effect the other way; inactive = flat fitted curve, though single readings scatter.

compound: CCCCCCCCSCc1cc(C)c(O)c(CSCCCCCCCC)c1
outcome: inactive
--
compound: [Cl][Eu]([Cl])[Cl]
outcome: inactive
--
compound: CCC(O)CO (stereo unspecified)
outcome: inactive
--
compound: CC(=O)Nc1ccc(N=Nc2cc(C)ccc2O)cc1
outcome: inactive
--
compound: Cc1ccc2sc3cccc(C)c3c2c1
outcome: inactive
--
compound: CC/C=C(\C)C=O
outcome: inactive

====

Assay: qHTS assay to identify small molecule antagonists of the glucocorticoid receptor (GR) signaling pathway - cell viability counter screen (AID 720693); also: nearly all actives have a fitted effect of over 55% in size
Settings: GR-bla HeLa viability, CellTiter-Glo luminescence, 18 h, with 5 nM dexamethasone present; series mostly up to 58.5 µM
Inconclusive results are not listed. Active and inactive are the calls of the source. Calls follow the shape of the dose curve; as a rule, active = well fitted cell-killing curve with a large enough effect in the repeat runs; inconclusive = weak or mixed curves, or effect the other way; inactive = no such curve, though single readings can be large or run the other way.
Labels: active, inactive

item_smiles: CCN(CC)CCn1c(=O)c(Cc2ccc(OC)cc2)nc2ccccc21
category: inactive
//
item_smiles: Cc1cc(F)ccc1-c1cc(N2CC[C@@H](O)[C@H]2CO)ncc1N(C)C(=O)C(C)(C)c1cc(C(F)(F)F)cc(C(F)(F)F)c1
category: active
//
item_smiles: NS(=O)(=O)c1cc(Cl)c(Cl)c(S(N)(=O)=O)c1
category: inactive
//
item_smiles: CCCCCCCCCCCCCCCCCCNC(=O)OC1CCN(C(=O)OC[C@H](COC(=O)N(Cc2cccc[n+]2CC)C(=O)c2ccccc2OC)OC)CC1
category: active

====

Tested on: estrogen-related receptor alpha (ERRalpha) with PGC-1alpha coactivator, human
Test: qHTS assay to identify small molecule antagonists of the estrogen related receptor signaling pathway with the pleiotropic PPARgamma coactivator (PGC) (AID 1224821); also: nearly all actives have a fitted effect of over 50% in size
Settings: ERR/PGC reporter cell line, luciferase, antagonist mode; series mostly up to 46.1 µM
Records with an inconclusive call do not appear. The source made the active and inactive calls. Calls come from the whole dose curve.
Labels: active, inactive

molecule: CN(C)C(=O)[C@H](O)[C@H](Cc1ccccc1)NC(=O)c1cc2cc(Cl)ccc2[nH]1
category: inactive
//
molecule: CC(C)Cn1c(=O)n(C)c(=O)c2[nH]cnc21
category: inactive
//
molecule: CC1CNCCN1S(=O)(=O)c1cccc2cnccc12 (stereo not given)
category: inactive
//
molecule: CNc1ncnc2c1ncn2[C@H]1C[C@H](OP(=O)(O)O)[C@@H](COP(=O)(O)O)O1
category: inactive
//
molecule: COc1cc2nc(N3CCCN(C)CC3)nc(NC3CCN(Cc4ccccc4)CC3)c2cc1OC
category: active

====

Assay: qHTS assay for small molecule agonists of the antioxidant response element (ARE) signaling pathway (AID 743202); as to activation: % is scaled to controls: 0 for no effect and ±100 for the full control effect
Settings: HepG2 ARE-bla reporter, beta-lactamase FRET, 16 h; series mostly up to 73.3 µM
Results filed as inconclusive are left out. The source made the active and inactive calls. Calls follow the shape of the dose curve; as a rule, active = well fitted activation curve with a large enough effect in the signal ratio in the repeat runs (not every such curve was filed as active); inconclusive = weak or mixed curves, or effect the other way; inactive = no such curve, though single readings can be large or run the other way; the % refers to the signal ratio.
Labels: active, inactive

compound: O=C1CCC/C=C\CCCCCCCCCC1
category: inactive
//
compound: c1ccc2cc3c4ccccc4c4ccccc4c3cc2c1
category: active
//
compound: S=C1NC=NC2N=CNC12 (stereo unspecified)
category: active
//
compound: CC(C)c1ccc2sc3ccccc3c(=O)c2c1
category: active
//
compound: CN(C/C=C/c1ccccc1)Cc1cccc2ccccc12
category: inactive
//
compound: O=C1CCCCCCCCCCCCCC1
category: inactive

====

Assay: qHTS assay to identify small molecule agonists of the AP-1 signaling pathway - cell viability counter screen (AID 1159525); also: nearly all actives have a fitted effect of over 55% in size
Details: ME-180 (cervical carcinoma) AP-1-bla cells viability, ATP luminescence, 5 h; series mostly up to 76.8 µM
Records with an inconclusive call do not appear. Calls of active or inactive are those of the source. Calls follow the shape of the full dose curve.
Labels: y = active, n = inactive

compound: N#CCCOCCC#N
category: n

compound: c1ccc(-c2nc3ccccc3[nH]2)cc1
category: n

compound: O=C(NCc1ncc(C(F)(F)F)cc1Cl)c1c(Cl)cccc1Cl
category: n

compound: Nc1ccc(Cl)c([N+](=O)[O-])c1
category: n

compound: C/C(=N\[Si](C)(C)C)O[Si](C)(C)C
category: n

compound: O=C1OC(O)C(C(Cl)Cl)=C1Cl (centres undefined)
category: n

compound: CN(C)CCOc1ccc(/C(=C(/CCCl)c2ccccc2)c2ccccc2)cc1
category: y

compound: Oc1ccc2c(c1)CCC2
category: n

compound: CN[C@H]1CC[C@@H](c2ccc(Cl)c(Cl)c2)c2ccc(S(N)(=O)=O)cc21
category: n

compound: Clc1ccc2c(Cl)ccnc2c1
category: n

compound: C=Cc1ccc(O)c(OC)c1
category: n

compound: Nc1cccnc1N
category: n

compound: c1ccc(-c2ccc(C(c3ccccc3)n3ccnc3)cc2)cc1 (centres undefined)
category: n

compound: Brc1cc(Br)cc(Br)c1
category: n

compound: CCCOC(=O)c1ccc(O)cc1
category: n

compound: O=C(CCN1CCC(c2ccccc2)C1)c1ccc2c(c1)OCCO2 (centres undefined)
category: n

compound: CCCC(=O)c1cc(O)c(O)cc1O
category: n

compound: Cc1ccc(Cl)c(N)c1Cl
category: n

compound: CCc1cccc(C)c1N(C(=O)C(=O)O)C(C)COC (centres undefined)
category: n

====

Biological target: Cytochrome P450 3A4 (Homo sapiens)
Test: Cytochrome P450 Family 3 Subfamily A Member 4 (CYP3A4) small molecule antagonists: luciferase reporter qHTS assay (AID 1671201); also: % is scaled to controls: 0 for no effect and ±100 for the full control effect; nearly all actives have a fitted effect of over 50% in size
Conditions: P450-Glo CYP3A4 enzyme, luciferin luminescence, 1 h; series mostly up to 115 µM
Results filed as inconclusive are left out. Active and inactive are the calls of the source. Calls come from the whole dose curve; as a rule, active = well fitted inhibition curve with a large enough effect in the repeat runs; inconclusive = weak or mixed curves; inactive = no such curve, though single readings can be large or run the other way.
Each record here notes measured activity change, negative = inhibition.
measure: activity change, negative = inhibition

item_smiles: COc1cc(C(C)C)ccc1C
measure: activity change, negative = inhibition
observed_measurement: -0.0855% [at 23.6 µM] (inactive)
--
item_smiles: O=C(O)C[C@H](O)C[C@H](O)/C=C/c1c(C2CC2)nc2ccccc2c1-c1ccc(F)cc1
measure: activity change, negative = inhibition
observed_measurement: -3.86% [at 23.6 µM] (inactive)
--
item_smiles: CCCCNc1ccc(NCCCC)c2c1C(=O)c1ccccc1C2=O
measure: activity change, negative = inhibition
observed_measurement: 15.3% [at 23.6 µM] (inactive)
--
item_smiles: C=C[Si](C)(C)Cl
measure: activity change, negative = inhibition
observed_measurement: 0.89% [at 10.5 µM] (inactive)

====

Assay: qHTS assay for identifying genotoxic compounds that show differential cytotoxicity against isogenic chicken DT40 cell lines with known DNA damage response pathways - Rad54/Ku70 mutant cell line (AID 743015); also: nearly all actives have a fitted effect of over 60% in size
Details: DT40 Rad54/Ku70 mutant viability, CellTiter-Glo, 40 h; series mostly up to 66.8 µM
Inconclusive results are not listed. Active and inactive are the calls of the source. The call rests on the fitted dose curve; in most records, active means well fitted cell-killing curve with a large enough effect in the repeat runs; inconclusive means weak or mixed curves; inactive means no such curve, though single readings can be large or run the other way.
Labels: active, inactive

item_smiles: CC(C)(C)c1ccc2c(S(=O)(=O)O)c(C(C)(C)C)ccc2c1
category: inactive

item_smiles: Nc1nc(/C(=C/CC(=O)O)C(=O)N[C@@H]2C(=O)N3C(C(=O)O)=CCS[C@H]23)cs1
category: inactive

item_smiles: Nc1cc(Cl)c(NC2=NCCN2)c(Cl)c1
category: inactive

item_smiles: CC[C@@H](C(=O)[C@@H](C)[C@@H](O)[C@H](C)CCc1ccc(C)c(O)c1C(=O)O)[C@H]1O[C@](CC)([C@H]2CC[C@](O)(CC)[C@H](C)O2)C[C@@H]1C
category: active
